target: P2X purinoceptor 7 (Homo sapiens)
Sequence (Q99572 whole entry): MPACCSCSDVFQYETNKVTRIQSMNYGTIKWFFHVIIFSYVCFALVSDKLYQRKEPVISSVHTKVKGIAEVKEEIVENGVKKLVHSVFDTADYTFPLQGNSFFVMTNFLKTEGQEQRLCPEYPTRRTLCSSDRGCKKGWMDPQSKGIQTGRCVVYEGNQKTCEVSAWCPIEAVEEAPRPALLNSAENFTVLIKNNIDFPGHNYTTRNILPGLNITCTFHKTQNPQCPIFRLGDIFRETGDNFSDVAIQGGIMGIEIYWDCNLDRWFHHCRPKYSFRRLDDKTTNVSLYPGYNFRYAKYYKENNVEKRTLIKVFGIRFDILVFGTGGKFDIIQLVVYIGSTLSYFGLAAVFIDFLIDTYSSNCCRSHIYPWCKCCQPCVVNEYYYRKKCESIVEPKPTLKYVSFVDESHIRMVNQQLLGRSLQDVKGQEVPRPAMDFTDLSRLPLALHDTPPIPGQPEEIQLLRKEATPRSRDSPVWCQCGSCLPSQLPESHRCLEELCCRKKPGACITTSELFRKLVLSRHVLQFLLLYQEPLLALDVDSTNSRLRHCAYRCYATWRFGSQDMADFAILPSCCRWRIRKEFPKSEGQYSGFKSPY
Here, each record is paired with measured pKi data.
// pKi here means minus log10 of the molar concentration (mol/L)

The cases that follow already have their pKi on record.
COMPOUND	pKi
CN1C(=O)CC[C@H]1C(=O)NCc1ccc(Cl)cc1Cl	6.75
O=C(NCc1ccc(Cl)cc1Cl)[C@@H]1CCC(=O)N1c1cscn1	7.11
O=C(NCc1ccc(Cl)cc1Cl)[C@@H]1CCC(=O)N1c1nccs1	6.31

Look up pKi with P2X purinoceptor 7 (Homo sapiens) for this compound: O=C(NCc1ccc(Cl)cc1Cl)[C@@H]1COC(=O)N1c1cccs1
5.51

Another: O=C(NCc1ccc(Cl)cc1Cl)[C@@H]1CCC(=O)N1c1ccco1
6.93

Another: CN1C(=O)CC[C@H]1C(=O)NCc1cccc(C(F)(F)F)c1Cl [GSK1482160]
7.17

Another: O=C(NCc1ccc(Cl)cc1Cl)[C@@H]1CCC(=O)N1c1ccsc1
6.59

Another: O=C(NCc1ccc(Cl)cc1Cl)[C@@H]1CCC(=O)N1c1cccs1
6.83
